TARGET UNDER TEST: CDK2/CyclinE (Homo sapiens)
ASSAY NAME: CDK2/CyclinE Flashplate assay, 96-well format, biotinylated-Rb peptide substrate
Format: biochemical
pIC50: −log10 of the molar value.
Here the recorded pIC50 is given for each entry.
PROPERTY: pIC50

compound=CCNc1ccc(S(=O)(=O)Oc2ccc3[nH]c(NC(=O)OC)nc3c2)cc1 qual== observed_result=6.52
compound="O=C(NCCN1CCOCC1)Nc1nc2cc(OS(=O)(=O)c3ccc(NCC4CCCO4)cc3)ccc2[nH]1 (stereo not drawn)" qual== observed_result=7.40
compound=O=C(NCC1CCNCC1)Nc1nc2cc(OS(=O)(=O)c3ccc(NC4CCCC4)cc3)ccc2[nH]1 qual== observed_result=8.00
compound=O=C(NCc1ccccc1F)Nc1nc2cc(OS(=O)(=O)c3ccc(-n4ccnc4)cc3)ccc2[nH]1 qual== observed_result=7.00
compound=CC(C)CNC(=O)Nc1nc2cc(OS(=O)(=O)c3ccc(NC4CCCC4)cc3)ccc2[nH]1 qual== observed_result=6.70
compound=COC(=O)[C@@H]1CCCN1C(=O)Nc1nc2cc(OS(=O)(=O)c3ccc(NC4CCCC4)cc3)ccc2[nH]1 qual== observed_result=7.70
compound=COC(=O)Nc1nc2cc(OS(=O)(=O)c3cccc(OC)c3)ccc2[nH]1 qual== observed_result=6.00
compound=O=C(NCc1ccccn1)Nc1nc2cc(OS(=O)(=O)c3ccc(NC4CCCC4)cc3)ccc2[nH]1 qual== observed_result=7.40
compound=O=C(NCc1cccnc1)Nc1nc2cc(OS(=O)(=O)c3ccc(-n4ccnc4)cc3)ccc2[nH]1 qual== observed_result=7.00
compound=COC(=O)Nc1nc2cc(OS(=O)(=O)c3ccc(NCCc4ccccc4)cc3)ccc2[nH]1 qual=< observed_result=5.00
compound=COC(=O)Nc1nc2cc(OS(=O)(=O)c3cccs3)ccc2[nH]1 qual== observed_result=6.70
compound=O=C(Nc1cccc(F)c1)Nc1nc2cc(OS(=O)(=O)c3ccc(NC4CCCC4)cc3)ccc2[nH]1 qual== observed_result=5.80

Hey, just so you know, these numbers are from patent US20050014811A1.
